Target: Lysine-specific demethylase 5B (Homo sapiens)
Test: Primary screen for KDM5B Histone Demethylases FDH-coupled qHTS; note: nearly all actives have a fitted effect of over 70% in size
Conditions: FDH-coupled NADH fluorescence (FDH is formaldehyde dehydrogenase); series mostly up to 57.7 µM
The whole screen tested about 220,000 compounds, of which about 5,700 (2.6%) were called active. Not shown: some 18% with an inconclusive outcome. Calls come from the whole dose curve; as a rule, active = well fitted inhibition curve with a large enough effect; inconclusive = small, poorly fitted or top-dose-only effect; inactive = no such curve, though single readings can be large or run the other way. The full list was thinned out, with actives kept by preference.
Outcome codes: TRUE (active), FALSE (inactive)

- compound: "O=C(c1cccnc1)N1CCN(c2cc(-c3ccccc3)[nH]n2)CC1"
  label value: "FALSE"
- compound: "CC1CCN(c2nc3ccccc3nc2C(C#N)S(=O)(=O)c2cccc(Cl)c2)CC1 (stereo not given)"
  label value: "FALSE"
- compound: "CCNC(=O)NC(=O)CSc1nc(-c2ccco2)nc2ccccc12"
  label value: "FALSE"
- compound: "COCC(=O)N(C1CCOCC1)C1CCN(C(=O)c2cccc(OC)c2)CC1"
  label value: "FALSE"
- compound: "CCOc1ccccc1NC(=O)Cn1nnc(C(=O)NCc2cccs2)c1N"
  label value: "FALSE"
- compound: "O=C(Nc1cccc(Cl)c1)N1CCN(c2cc(=O)n3nc(-c4ccco4)sc3n2)CC1"
  label value: "FALSE"
- compound: "COc1cccc(-c2noc(CC3CCN(C(=O)c4ccc(F)cc4)CC3)n2)c1"
  label value: "FALSE"
- compound: "O=C(c1cccnc1)N1CCC2(CCCN(C3CCOCC3)C2=O)C1 (stereo not given)"
  label value: "FALSE"
- compound: "O=C(c1ccccc1F)N1CCC2(CC1)C(=O)NN=C2C1CC1"
  label value: "FALSE"
- compound: "Cc1ccc(-c2nc(N3CCOCC3)cc3c2CN(Cc2cnn(C)c2)C3=O)cn1"
  label value: "TRUE"
